// provenance: the supplement of paper PMC10567573

test: protein stability index of a GFP-peptide fusion (GPS, HEK-293T) (PSI 1-6); higher = more stable;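 further: 24-mer peptide tiles fused after GFP, lentivirally expressed, FACS-sorted into six equal bins by GFP/DsRed ratio, decoded by Illumina sequencing, PSI is the read-weighted mean bin number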
protocol conditions: treatment: DMSO; c terminus: a fixed tail appended
// reported protein stability index per item

| residue sequence | protein stability index |
| --- | --- |
| YCKPTRLDLLLDMPPVSYDVQLLH [SPSB1] | 2.2 |
| KDLTEYLKVRSHDPEEAIRHDVIV [PDS5B] | 3.26 |
| SGGSSSSFRAGSKGLSGGFGSRSL [KRT71] | 3.32 |
| MRQRISRVEESALRALREKLFAHS [PPEF2] | 2.72 |
| QHECVNTDDSYSCHCLKGFTLNPD [MATN2] | 4.04 |
| PIVSSLADPLDTPPDSKEGIVVES [PDZK1] | 5.37 |
| PDPEPPPVTPQVGEGRKSRKFSRL [SMG5] | 3.98 |
| AEIPDGPPVVAHYDMSDTNSDPEV [C18orf25] | 5.65 |
| FQKSLVLISKLPYIHFFHTVLKQI [DENND6A] | 2.67 |
| PDIMNLLIKSGAHFDATNLHKQTA [FEM1C] | 2.39 |
| RKFWWKNVKMIVLICVIVFIIILF [VAMP8] | 3.13 |
| DLQVNRNFSLATNTKYSVYIYVYF [R3HDM1] | 2.59 |
| LRNIQGLFAPLKLQMEFKAVQQVQ [POMP] | 2.25 |

====

test: protein stability index of a GFP-peptide fusion (GPS, HEK-293T) (PSI 1-6); higher = more stable
protocol conditions: treatment: MLN4924 1 uM, 8 h; c terminus: a fixed tail appended
Label 0.0 if protein stability index falls below 3; label 1.0 in every other case.

| residue sequence | category label |
| --- | --- |
| TVCDPARSCAIVEDDGLQSAFTAA [ADAMTS4] | 1.0 |
| WQRQMDQPQDRNQALGTHRPVNKL [RASAL3] | 1.0 |
| AYRCGSGMQMAEDSKSLKTHQTQP [NET1] | 1.0 |
| DDLQQLQLFTEYGRLAMDEIFQKP [ATL3] | 1.0 |
| LEVNKPKNRYANVIAYDHSRVLLS [PTPRD] | 0.0 |
| DLRGVCVSGKCEPIGCDGVLFSTH [ADAMTSL2] | 0.0 |
| DVHHGQGTQFTFDQDPSVLYFSIH [HDAC6] | 0.0 |

====

test: protein stability index of a GFP-peptide fusion (GPS, HEK-293T) (PSI 1-6); higher = more stable
protocol conditions: treatment: DMSO; c terminus: a fixed tail appended
// reported protein stability index per item

| residue sequence | protein stability index |
| --- | --- |
| LLAPGEQSLPCTERKPAATARLSR [KISS1] | 4.46 |
| EMRTKEQILELLVLEQFLTILPQE [ZNF263] | 2.44 |
| AEFEKLSDQVKISEEALRADGFGD [SAT2] | 5.33 |
| EQAKKESEDQKRLKQAKELDRERA [CHCHD3] | 5.57 |
| TTFSTTSGYMEGYYTFHFLYFKDK [FBXO3] | 2.97 |
| VLLKKDVDAAYANKVELQAKVESM [KRT71] | 3.63 |
| TSLSLAQVGAKGDTANEIGQVLHF [SERPINB5] | 3.06 |
| TRNVQSVSIIDTELKVKDSQPIDL [TRIP13] | 4.32 |
| FVVMGVIGGLLGATFNCLNKRLAK [CLCN6] | 2.55 |
| QGRFCTIFRSYSRGAQGILLVYDI [RAB40C] | 2.74 |
| TYVAKMSEPHYGHAGTVYGGVMYI [KLHL13] | 3.32 |
| DGVPHLILIASRDIAAGEELLYDY [KMT5A] | 1.98 |
| KGLSGGFGSRSLYSLGGVRSLNVA [KRT71] | 2.58 |

====

test: protein stability index of a GFP-peptide fusion (GPS, HEK-293T) (PSI 1-6); higher = more stable
protocol conditions: treatment: MLN4924 1 uM, 8 h; c terminus: a fixed tail appended
Label No if protein stability index falls below 3; label Yes in every other case.

| residue sequence | category label |
| --- | --- |
| KDLTEYLKVRSHDPEEAIRHDVIV [PDS5B] | Yes |
| MTTALQGQRLAVCVPAHPPPCAWA [CTBP1-DT] | No |
| EEWGHQDPSKRALSRDTVQESYEN [ZNF263] | Yes |
| CSSRPLQKGSHPMCKEHEDEKINI [TRIM63] | Yes |
| TLRRIQASMAPAAALPPVPSPPAA [SERTAD1] | Yes |
| RLCLPALSQMGAQSSGKILLCPLC [TRIM15] | No |
| INLEEKEKQIRSFLIEGPLINTIR [PLEKHN1] | No |
| TEEELRRIQTQKEQAKENENGELQ [ZC2HC1C] | Yes |
| TIYCSLQLQALNRRFQQTQYLALP [DLX1] | No |
| PHLRSFCETCVGSWSIQMRQHHHQ | No |
| DSGDVSNVIEKVKCILKTPGKINC [RHOBTB3] | No |
| SEDRTIRVWLKRDSGQYWPSIYHT [WDFY1] | No |
| TAFAPKMIVDLLSEKKTISFQGCM [OR4A15] | No |
| EGSLQQPKAQSAMSPYLVPDTQAL [SMG5] | Yes |
| RNGMASEGLNSSLCSPGHERRGTP [PSD2] | Yes |
| QRTIMKPLEYQFKSQIMSLSHSPQ [TLE6] | Yes |
| KYNSARADFEQKMLDSALRFQAME [FCHO1] | Yes |
| MRQRISRVEESALRALREKLFAHS [PPEF2] | No |
| KSTSKYIYQTLFLNGENSDIKICA [GMCL1] | Yes |
| GRTGTLIACYVMKHYRFTHAEIIA [CDC14A] | Yes |
| LTAALLTFDTGCLTLSQYILLDPI [POMT2] | Yes |
| LLTGETEADPEMIKRAEDYGPVEV [CLPTM1] | Yes |
| SCSQNLLITQQIIPVLYCMVFIAG [P2RY14] | No |
| SSSTMSKSEYMEIEEDMNNSIAHY [KCNA1] | Yes |
| CNVDLLKIIQLGLTFMNEQGEYPP [CNOT7] | No |
| QSILLNTRLQDCYVDSPALTNIWM [C22orf31] | No |

====

test: protein stability index of a GFP-peptide fusion (GPS, HEK-293T) (PSI 1-6); higher = more stable
protocol conditions: treatment: DMSO; c terminus: a fixed tail appended
readout: protein stability index

| residue sequence | measured value |
| --- | --- |
| YEKTPFDQLAFIEELFSLMVVNRL [EID1] | 2.68 |
| TETHVRDWVMWAVNEFSLKGVDFQ [ETS1] | 2.81 |
| PQGLFVEALSVPLSLCVSSHLALP [CLPTM1] | 2.96 |
| RRDYLLLVMEGTDDGRLLEYDTVT [APMAP] | 2.26 |
| DSFDKFEFCEPAFVVGNCLQIASD [PCMTD1] | 3.31 |
| DLVRLLQNVARIPEFELLWKDIIH [INTS3] | 2.61 |
| TSSLAQPGAYYPYERTLGQYQYER [IRX6] | 3.25 |
| SAPGACEEPTERGNLEVGEPQSEP [FBXO34] | 5.67 |
| LESQVQKDGVADSTVISSMPCLLM [C18orf25] | 3.39 |
| KPSENHPLHNSGLLSLDPVQDKTP [MED27] | 4.98 |
| QRLGIPKDPRQWTETHVRDWVMWA [ETS1] | 2.37 |
| DKWFRKIKDHFCPFENQFHTEIQI [C8orf76] | 2.2 |
| NTELEVKIRDWYQRQAPGPARDYS [KRT17] | 3.4 |

====

test: protein stability index of a GFP-peptide fusion (GPS, HEK-293T) (PSI 1-6); higher = more stable
protocol conditions: treatment: DMSO; c terminus: a fixed tail appended
readout: protein stability index

| residue sequence | measured value |
| --- | --- |
| VEVDAPKSQDLAKIMADIRAQYDE [KRT18] | 4.76 |
| MVGLILGPFGVNHGVELHSDVIEY [PCMTD2] | 3 |
| QKCHSIGETDEVTKTEDRELVLRK [ZSCAN9] | 5.32 |
| GISTGHWSGEVKDKNVQVVELPIV [FUT8] | 3.8 |
| RFKDKSSEEAVREVHRLIEGKAPI [TPPP] | 4.6 |
| GETRICKIYDSPCLPEAEAMFAIN [RAD51] | 3.53 |
| LLSVDAFAAPSPATTASPAKVDSS [SNAP91] | 4.86 |
| SLTAAETLALQGTQGQEKMMMMGP [ZNF232] | 4.01 |
| REGALRAALQRSLAAALAQHSVPL [TRADD] | 2.25 |
| AEGSNSESSDDDSEEAPSTSGMGF [SDE2] | 5.37 |
| LYQRAPRNIHRHVILSEIKEAVAA [TCF25] | 2.75 |
| PNADLLFSDPSQSDPETKDFWLNM [FCHO1] | 4.2 |
| IHSPAHPEIEKADDHLQQPLQNQK [ZNF649] | 5.39 |
